# EXPERIMENTAL_PROTOCOL: in vitro
# EXPERIMENTAL_SETUP: African green monkey
CC50 for assorted compounds

# lookup: CC50 of COc1cc(NC(C(=O)c2c[nH]c3cc(OC)ccc23)c2ccc(Cl)cc2OC)cc(S(C)(=O)=O)c1 (single isomer, unassigned) [Compound 3A] 7.2 µM

// next record COc1cc(NC(C(=O)c2c[nH]c3ccc(OC(F)(F)F)cc23)c2ccc(Cl)cc2OC)cc(S(C)(=O)=O)c1 (racemic) [Compound 9] 3.1 µM

Record: COc1cc(NC(C(=O)c2c[nH]c3cc(F)c(C)cc23)c2ccc(Cl)cc2OC)cc(S(C)(=O)=O)c1 (racemic) [Compound 7] 3.2 µM

Next up: COc1cc(NC(C(=O)c2c[nH]c3cc(OC)c(F)cc23)c2ccc(Cl)cc2OC)cc(S(C)(=O)=O)c1 (racemic) [Compound 5] 5.5 µM

And what about the compound COc1cc(NC(C(=O)c2c[nH]c3cc(OC)ccc23)c2ccc(Cl)cc2OC)cc(S(C)(=O)=O)c1 (racemic) [Compound 3] ? > 11 µM

How about this compound: COc1cc(NC(C(=O)c2c[nH]c3ccc(C(F)(F)F)cc23)c2ccc(Cl)cc2OC)cc(S(C)(=O)=O)c1 (racemic) [Compound 8] 2.9 µM

What do you have for COc1cc(NC(C(=O)c2c[nH]c3cc(OC)c(C)cc23)c2ccc(Cl)cc2OC)cc(S(C)(=O)=O)c1 (racemic) [Compound 4] ? 5.9 µM

Query COc1cc(NC(C(=O)c2c[nH]c3c(C)c(F)ccc23)c2ccc(Cl)cc2OC)cc(S(C)(=O)=O)c1 (racemic) [Compound 2] next 5 µM
